Here the recorded growth inhibition is given for each entry.
test: NCI Yeast Anticancer Drug Screen. Data for the mlh1 rad18 strain (AID 175); settings: S. cerevisiae mlh1 rad18 strain growth inhibition; at 50.0 µM; hits give high values
The panel holds about 79,000 compounds, 15% with a hit somewhere; the sample as a whole holds those more often.
Report only the number, with the unit % understood.

CHEMICAL STRING: N#CCCCCCCCCCCC(=O)O
MEASUREMENT KIND: growth inhibition
MEASURED VALUE: -10.2

Fill in the blank: the reported growth inhibition of CN(C)c1ccc(C=Nc2cc(S(=O)(=O)O)cc3cc(S(=O)(=O)O)cc(O)c23)cc1 is ____.
8.85

Fill in the blank: the reported growth inhibition of FC(F)Cc1ccccc1 is ____.
-6.6

Fill in the blank: the reported growth inhibition of CCNc1nc(C)nc2c1cnn2C is ____.
-1

Fill in the blank: the reported growth inhibition of Cc1cc(NCCN(C)C)nc(Nc2ccc(Cl)cc2)n1 is ____.
54.8

Fill in the blank: the reported growth inhibition of Nc1nc(Cl)cc(Nc2ccc3c(c2)CCC3)n1 is ____.
-20.4

Fill in the blank: the reported growth inhibition of COc1cc(NS(=O)(=O)c2ccc(N)cc2)nc(OC)n1 is ____.
-3.9

----------
experiment: NCI Yeast Anticancer Drug Screen. Data for the mec2-1 strain (AID 157); details: S. cerevisiae mec2-1 strain, at 50.0 µM, hits give high values
This is part of a sample that, as a whole, favours compounds with a hit. Of some 79,000 tested, about 15% had one in any assay. Active and inactive are the calls of the source. No stated cut-off is given here; in the data, active means growth inhibition above about 70%; inactive means the rest.
MEASUREMENT KIND: growth inhibition

Check out these entries, answers already filled in.
MOLECULE: CCCCCCCOC(=O)C(CC)CC
growth inhibition: -6.45% (inactive)
//
MOLECULE: O=C(Nc1ccc2c(c1)OCO2)O/N=C\c1ccccn1
growth inhibition: 26.8% (inactive)
//
MOLECULE: N#Cc1nc(CC(=O)c2ccc(Cl)c(Cl)c2)c(CC(=O)c2ccc(Cl)c(Cl)c2)nc1C#N
growth inhibition: 10.4% (inactive)
//
MOLECULE: CC1=C(O)C(=O)C2C(=O)C1C1Cc3ccccc3C21 (stereo unspecified)
growth inhibition: -2.05% (inactive)
//
MOLECULE: CN(C)C=S
growth inhibition: 1.9% (inactive)
//
MOLECULE: S=C(NCc1cccnc1)Nc1ccc(Cl)c(Cl)c1
growth inhibition: 13.3% (inactive)

Fill in the blank: the reported growth inhibition of COc1ccccc1-c1coc2c(ccc3oc(C(C)C)cc32)c1=O is ____.
20% (inactive)

Fill in the blank: the reported growth inhibition of COC1=CC(=O)C2CC=C(C)CC2(C)C1=O (stereo unspecified) is ____.
-12.4% (inactive)

Fill in the blank: the reported growth inhibition of CCOC(=O)C(Cc1ccccc1Cl)(Cc1ccccc1Cl)c1ccccc1 is ____.
-17.1% (inactive)

Fill in the blank: the reported growth inhibition of N#C/C(=C\c1c2ccccc2c(Cl)c2ccccc12)C(N)=S is ____.
24.9% (inactive)

Fill in the blank: the reported growth inhibition of NC(=O)C1=CNCCC1 is ____.
-6.05% (inactive)

Fill in the blank: the reported growth inhibition of CN(N)c1cnn(-c2ccccc2)c(=O)c1Cl is ____.
-48% (inactive)

Fill in the blank: the reported growth inhibition of CSC(=S)Nc1nc2ccc(C)cc2s1 is ____.
0.4% (inactive)

Fill in the blank: the reported growth inhibition of CC12CCC3c4ccc(OC(=O)c5ccc([N+](=O)[O-])cc5)cc4CCC3C1CCC2=O (stereo unspecified) is ____.
-6.95% (inactive)

Fill in the blank: the reported growth inhibition of CC(=O)Nc1cccc(Cc2cccc(NC(C)=O)c2)c1 is ____.
-13.3% (inactive)

Fill in the blank: the reported growth inhibition of CC1CCCCC1(C)O (stereo unspecified) is ____.
34.6% (inactive)

Fill in the blank: the reported growth inhibition of CN1CC2=C(NC(=S)NC2c2ccccc2Cl)/C(=C/c2ccccc2Cl)C1 (stereo unspecified) is ____.
13.2% (inactive)

Fill in the blank: the reported growth inhibition of NC12CC3CC(C1)CC(Cl)(C3)C2 is ____.
-26.9% (inactive)

Fill in the blank: the reported growth inhibition of CC12O[C@H](c3ccccc3)[C@H](c3ccccc3)N1C(=O)C1(C(=O)OCc3ccccc3)CC12 (stereo partly specified) is ____.
-7.35% (inactive)

Fill in the blank: the reported growth inhibition of COc1ccc(-n2c(N)c(C#N)c(C#N)c2-c2ccccc2)cc1 is ____.
8.6% (inactive)

Fill in the blank: the reported growth inhibition of O=C1C(/C=N\C(=S)NCc2ccccc2)=C(O)c2ccccc21 is ____.
-30.2% (inactive)

Fill in the blank: the reported growth inhibition of CCC(C)(O)c1cnc(CC(C)C)c(=O)n1O (stereo unspecified) is ____.
32.9% (inactive)

Fill in the blank: the reported growth inhibition of Cc1ccc(/C=C/C(=O)c2sc(-n3nc(-c4ccccc4)cc3-c3ccccc3)nc2C)cc1 is ____.
-6.85% (inactive)

Fill in the blank: the reported growth inhibition of O=C(Cc1ccccc1)NN1C(=O)/C(=C\c2ccc([N+](=O)[O-])cc2)SC1=Nc1ccccc1 is ____.
-8.85% (inactive)

Fill in the blank: the reported growth inhibition of CC(=O)NC1c2ccccc2CCC1OC(C)=O (stereo unspecified) is ____.
-8.05% (inactive)

Fill in the blank: the reported growth inhibition of CCOC(=O)NC(=O)c1cn(CCSCCOC(=O)NCCCCCCNC(=O)OCCSCCn2cc(C(=O)NC(=O)OCC)c(=O)[nH]c2=O)c(=O)[nH]c1=O is ____.
20.6% (inactive)

Fill in the blank: the reported growth inhibition of CN(C)CCCNc1ccc([N+](=O)[O-])c2nc3ccccc3c(N)c12 is ____.
-64.7% (inactive)

Fill in the blank: the reported growth inhibition of CN(C)CCOC(=S)S is ____.
-0.4% (inactive)

Fill in the blank: the reported growth inhibition of CCCCCCCCCCCCCCCCC/C(CC)=N/Nc1ccc([N+](=O)[O-])cc1[N+](=O)[O-] is ____.
3.9% (inactive)

Fill in the blank: the reported growth inhibition of ClCCCOC1CCCCO1 (stereo unspecified) is ____.
-40.5% (inactive)

Fill in the blank: the reported growth inhibition of Cc1nc(C)c(N2CCN(C(=O)NC(CCC(=O)O)C(=O)O)CC2)c(=O)[nH]1 (stereo unspecified) is ____.
8.95% (inactive)

----------
Assay: NCI Yeast Anticancer Drug Screen. Data for the rad50 strain (AID 155);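 note: 0% = growth of vehicle-only cultures of the same strain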
Settings: S. cerevisiae rad50 strain growth inhibition; at 50.0 µM; hits give high values
Description: Growth inhibition of yeast strains with defined genetic alterations is measured as a screen for potential anti-cancer activity. Selected strains with alterations in DNA damage repair or cell cycle control were exposed to compounds and growth inhibition was measured relative to vehicle treated controls. The strain used in this assay is rad50
Compounds without any hit were thinned out: in the full panel of roughly 79,000, 15% have a hit.
MEASUREMENT KIND: growth inhibition (%)
Report only the number, with the unit % understood.

COMPOUND: Cc1cccc(NC(=O)c2cccc([N+](=O)[O-])c2C(=O)O)c1C
growth inhibition / %: 4.8
//
COMPOUND: Cc1cncc(NS(=O)(=O)c2ccc(N)cc2)n1
growth inhibition / %: 0.7
//
COMPOUND: Cc1cc(N(CCCOS(C)(=O)=O)CCCOS(C)(=O)=O)ccc1C=Nc1cc(Cl)c(O)c(Cl)c1
growth inhibition / %: 31.7

For the next question, use this compound.
Fill in the blank: the reported growth inhibition of CCCCC(C(N)=O)C(C)(C)C(=O)O (centres undefined) is ____.
-6

----------
assay: NCI Yeast Anticancer Drug Screen. Data for the cln2 rad14 strain (AID 165);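 note: 0% = growth equal to vehicle treated cultures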; details: S. cerevisiae cln2 rad14 strain, at 50.0 µM, hits give high values
About 79,000 compounds went through this panel and 15% of them were active in at least one assay; those are over-represented in the sample as a whole. Activity calls are given as the source filed them. Cut-off read from the data, not from the text of the source: active = growth inhibition above about 70%; inactive = the rest.
MEASUREMENT KIND: growth inhibition

COMPOUND: COc1cc(CC2C(=O)NC(=O)NC2=O)ccc1OCc1ccccc1
growth inhibition: -19.4% (inactive)

Fill in the blank: the reported growth inhibition of Nc1nc(Cl)c(Cl)nc1C(=O)O is ____.
-32.6% (inactive)

Fill in the blank: the reported growth inhibition of CCOC(=O)c1c(N)sc2c1C(C(=O)OCC)CCC2 (stereo not drawn) is ____.
-24.1% (inactive)

----------
Here the recorded growth inhibition is given for each entry.
assay: NCI Yeast Anticancer Drug Screen. Data for the mlh1 rad18 strain (AID 175); details: S. cerevisiae mlh1 rad18 strain growth inhibition; at 50.0 µM; hits give high values
The panel holds about 79,000 compounds, 15% with a hit somewhere; the sample as a whole holds those more often.
Report only the number, with the unit % understood.

COMPOUND: N#C/C(N)=C(\C#N)NC=NCc1ccccc1
MEASURED VALUE: -21.1

COMPOUND: Cc1ccccc1Nc1nc2ccccc2nc1NS(=O)(=O)c1ccccc1
MEASURED VALUE: -58.4

COMPOUND: COc1ccc(CCC2(C)OCCCO2)cc1
MEASURED VALUE: 17.4

COMPOUND: O=C(Nc1ccc(S(=O)(=O)N2CCCCC2)cc1)OC1CCCCC1
MEASURED VALUE: -5.45

Fill in the blank: the reported growth inhibition of Fc1ccc(C2SCc3nc4ccccc4n32)cc1F (stereo unspecified) is ____.
18.6

Fill in the blank: the reported growth inhibition of CCOC(=O)NC(C)=O is ____.
-20.8
